test: Antibacterial activity against Acinetobacter calcoaceticus/baumannii complex isolate M2AC9-31 expressing KPC beta lactamase; assay type: functional
metric-name: MIC

# compound, metric-name, test-result
data = [
    ("CN(C)c1cc(NC(=O)CNC(C)(C)C)c(O)c2c1C[C@H]1C[C@H]3[C@H](N(C)C)C(O)=C(C(N)=O)C(=O)[C@@]3(O)C(O)=C1C2=O [TIGECYCLINE]", "MIC", "1 µg/mL"),
    ("CO/N=C(\\C(=O)N[C@@H]1C(=O)N2C(C(=O)O)=C(COC(C)=O)CS[C@H]12)c1csc(N)n1 [CEFOTAXIME]", "MIC", "> 32 µg/mL"),
]

Query: Entry C[C@@H](O)[C@H]1C(=O)N2C(C(=O)O)=C(S[C@@H]3CN[C@H](C(=O)N(C)C)C3)[C@H](C)[C@H]12 [MEROPENEM] has what MIC?
Response: > 8 µg/mL

====

assay: Antibacterial activity against Acinetobacter calcoaceticus/baumannii complex isolate M3AC9-7 expressing KPC beta lactamase; assay type: functional
Below, each entry is listed alongside its reported MIC.

Use the examples below as a reference point.
# compound, MIC
data = [
    ("C[C@@H](O)[C@H]1C(=O)N2C(C(=O)O)=C(S[C@@H]3CN[C@H](C(=O)N(C)C)C3)[C@H](C)[C@H]12", "> 8 µg/mL"),
    ("C[C@@H](O)[C@H]1C(=O)N2C(C(=O)O)=C(S[C@@H]3CN[C@H](CNS(N)(=O)=O)C3)[C@H](C)[C@H]12", "> 2 µg/mL"),
    ("C[C@H]1COc2c(N3CCN(C)CC3)c(F)cc3c(=O)c(C(=O)O)cn1c23.C[C@H]1COc2c(N3CCN(C)CC3)c(F)cc3c(=O)c(C(=O)O)cn1c23.O", "> 8 µg/mL"),
    ("C[C@@H](O)[C@H]1C(=O)N2C(C(=O)O)=C(SCCNC=N)C[C@H]12 [IMIPENEM ANHYDROUS]", "> 8 µg/mL"),
    ("NCC[C@H](O)C(=O)N[C@@H]1C[C@H](N)[C@@H](O[C@H]2O[C@H](CN)[C@@H](O)[C@H](O)[C@H]2O)[C@H](O)[C@H]1O[C@H]1O[C@H](CO)[C@@H](O)[C@H](N)[C@H]1O", "> 32 µg/mL"),
]

Query: Entry CO/N=C(\C(=O)N[C@@H]1C(=O)N2C(C(=O)[O-])=C(C[N+]3(C)CCCC3)CS[C@H]12)c1csc(N)n1 has what MIC?
Response: > 16 µg/mL

Query: Entry CN(C)c1ccc(O)c2c1C[C@H]1C[C@H]3[C@H](N(C)C)C(O)=C(C(N)=O)C(=O)[C@@]3(O)C(O)=C1C2=O has what MIC?
Response: < 2 µg/mL

Query: Entry CC(C)(O/N=C(\C(=O)N[C@@H]1C(=O)N2C(C(=O)[O-])=C(C[n+]3ccccc3)CS[C@H]12)c1csc(N)n1)C(=O)O has what MIC?
Response: > 16 µg/mL

Query: Entry CO/N=C(\C(=O)N[C@@H]1C(=O)N2C(C(=O)O)=C(COC(C)=O)CS[C@H]12)c1csc(N)n1 has what MIC?
Response: > 32 µg/mL

Query: Entry CN(C)c1cc(NC(=O)CNC(C)(C)C)c(O)c2c1C[C@H]1C[C@H]3[C@H](N(C)C)C(O)=C(C(N)=O)C(=O)[C@@]3(O)C(O)=C1C2=O has what MIC?
Response: 0.5 µg/mL
